# TEST TARGET: ABL1 (Homo sapiens, UniProt P00519)
# Sequence (P00519 whole entry, species assumed): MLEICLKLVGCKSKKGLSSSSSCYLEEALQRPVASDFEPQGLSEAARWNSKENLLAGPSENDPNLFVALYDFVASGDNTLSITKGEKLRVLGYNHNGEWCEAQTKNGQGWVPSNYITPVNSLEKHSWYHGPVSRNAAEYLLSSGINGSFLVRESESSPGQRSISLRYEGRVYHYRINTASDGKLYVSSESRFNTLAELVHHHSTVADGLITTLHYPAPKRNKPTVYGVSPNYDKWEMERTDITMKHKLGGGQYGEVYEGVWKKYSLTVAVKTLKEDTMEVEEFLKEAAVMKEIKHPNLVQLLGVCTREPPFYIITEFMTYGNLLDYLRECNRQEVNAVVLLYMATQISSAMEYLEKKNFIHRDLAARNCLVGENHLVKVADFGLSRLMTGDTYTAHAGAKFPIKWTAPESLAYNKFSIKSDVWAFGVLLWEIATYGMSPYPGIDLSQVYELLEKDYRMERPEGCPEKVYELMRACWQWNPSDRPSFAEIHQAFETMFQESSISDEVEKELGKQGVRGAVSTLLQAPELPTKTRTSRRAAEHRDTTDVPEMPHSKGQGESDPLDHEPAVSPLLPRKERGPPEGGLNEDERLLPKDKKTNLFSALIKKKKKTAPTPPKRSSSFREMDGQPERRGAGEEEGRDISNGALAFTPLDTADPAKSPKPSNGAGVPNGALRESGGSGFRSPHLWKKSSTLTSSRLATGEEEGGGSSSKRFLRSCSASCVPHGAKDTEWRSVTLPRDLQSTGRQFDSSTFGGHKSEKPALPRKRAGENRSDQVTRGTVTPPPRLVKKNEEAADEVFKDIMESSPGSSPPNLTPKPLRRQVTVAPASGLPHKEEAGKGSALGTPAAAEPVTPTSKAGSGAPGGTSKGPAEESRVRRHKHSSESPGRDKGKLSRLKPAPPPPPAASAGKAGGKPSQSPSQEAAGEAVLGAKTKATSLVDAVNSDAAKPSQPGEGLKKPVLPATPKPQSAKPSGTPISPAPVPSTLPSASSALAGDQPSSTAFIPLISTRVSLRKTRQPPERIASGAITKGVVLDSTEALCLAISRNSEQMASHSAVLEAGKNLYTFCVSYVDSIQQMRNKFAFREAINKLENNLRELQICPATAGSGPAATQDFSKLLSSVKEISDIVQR
# TEST NAME: Kinase selectivity panel, ABL1
# Format: biochemical
# COND: read-out: pIC50 ABL1 (converted)
ENDPOINT NAME: IC50 (µM)

>>> df
                                   compound                          test_target  units_text  observed
0  CC(C)(O)CCOc1ccc(-c2cn(-c3cccnc3)c3nc[nH]c(=O)c23)cc1  ABL1 (Homo sapiens, UniProt P00519)          µM      7.94

a. COCCOc1ccc(-c2cn(-c3ccncc3)c3nc[nH]c(=O)c23)cc1
b. COCCOc1ccc(-c2cn(-c3cccnc3)c3nc[nH]c(=O)c23)cc1
c. O=c1[nH]cnc2c1c(-c1ccc(OCC(O)CN3CCOCC3)cc1)cn2-c1cccnc1 (stereo not shown)
Q: Could you please order the items by IC50, going from the lowest number to the highest? Return the labels ranked in the requested order, please.
Result: c, a, b
(c: 3.98 µM, a: 6.31 µM, b: 31.6 µM)

====

# TEST TARGET: GCK/MAP4K2 (Homo sapiens)
# Sequence (Q12851 whole entry): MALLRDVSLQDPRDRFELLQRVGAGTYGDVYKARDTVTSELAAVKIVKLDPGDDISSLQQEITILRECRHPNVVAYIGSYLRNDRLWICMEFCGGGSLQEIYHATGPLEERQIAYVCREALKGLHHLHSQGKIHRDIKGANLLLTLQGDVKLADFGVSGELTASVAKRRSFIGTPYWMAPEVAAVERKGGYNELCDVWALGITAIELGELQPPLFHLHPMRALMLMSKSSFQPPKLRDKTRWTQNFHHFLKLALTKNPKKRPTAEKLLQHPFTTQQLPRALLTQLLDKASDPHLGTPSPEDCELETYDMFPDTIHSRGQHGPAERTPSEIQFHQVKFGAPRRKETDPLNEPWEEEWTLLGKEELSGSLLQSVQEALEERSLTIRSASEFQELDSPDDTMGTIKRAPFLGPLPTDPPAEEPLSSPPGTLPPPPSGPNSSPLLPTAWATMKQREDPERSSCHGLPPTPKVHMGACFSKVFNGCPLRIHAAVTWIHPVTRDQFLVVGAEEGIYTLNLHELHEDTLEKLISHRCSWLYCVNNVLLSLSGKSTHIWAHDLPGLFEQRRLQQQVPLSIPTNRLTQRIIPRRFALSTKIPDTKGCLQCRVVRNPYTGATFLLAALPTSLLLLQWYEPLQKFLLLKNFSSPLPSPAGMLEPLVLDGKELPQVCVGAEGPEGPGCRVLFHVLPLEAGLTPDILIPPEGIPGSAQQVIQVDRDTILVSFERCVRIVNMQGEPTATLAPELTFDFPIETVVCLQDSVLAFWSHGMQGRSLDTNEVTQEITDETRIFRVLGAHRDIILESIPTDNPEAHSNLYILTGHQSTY
# TEST NAME: Kinase selectivity panel, GCK/MAP4K2
# Type: biochemical
# COND: in favour of MAP4K4
ENDPOINT NAME: fold selectivity MAP4K4 over GCK/MAP4K2

In [3]: df
Out[3]:
                                     smiles                            endpoint_name   observed
0  COCCOc1ccc(-c2cn(-c3cccnc3)c3nc[nH]c(=O)c23)cc1  fold selectivity MAP4K4 over GCK/MAP4K2  (79) fold
1  COCCOc1ccc(-c2cn(-c3ccncc3)c3nc[nH]c(=O)c23)cc1  fold selectivity MAP4K4 over GCK/MAP4K2  (79) fold

====

# TEST TARGET: human MAP4K4 kinase domain (Homo sapiens, UniProt O95819)
# Construct: 0.5 nM human MAP4K4 kinase domain (Invitrogen); purchased Invitrogen
# Sequence (O95819 25-289 limits assumed): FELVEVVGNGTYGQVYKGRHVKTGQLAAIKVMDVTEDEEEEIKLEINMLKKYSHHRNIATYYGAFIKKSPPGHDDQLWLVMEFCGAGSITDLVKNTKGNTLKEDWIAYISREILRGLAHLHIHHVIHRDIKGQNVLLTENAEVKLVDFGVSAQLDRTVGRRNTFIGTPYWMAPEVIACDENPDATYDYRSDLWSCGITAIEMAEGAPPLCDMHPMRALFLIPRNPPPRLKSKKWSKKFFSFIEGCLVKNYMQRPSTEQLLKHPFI
# TEST NAME: MAP4K4 kinase activity, CisBio HTRF Transcreener ADP assay
# Format: biochemical
# COND: IC50 category; ATP at Km (10 μM), 0.5 nM kinase domain, 2 h; read-out: MAP4K4
ENDPOINT NAME: IC50

Examples from the recorded data:
In [3]: df
Out[3]:
                                   molecule                               test_target  endpoint_name        observed
0  O=c1[nH]cnc2c1c(-c1ccn[nH]1)cn2-c1ccccc1 [Ex-57]  human MAP4K4 kinase domain (Homo sapiens, UniProt O95819)           IC50  100 to 1000 nM
1  CC(C)(O)CCOc1ccc(-c2cn(-c3ccccc3)c3nc[nH]c(=O)c23)cn1 [Ex-75]  human MAP4K4 kinase domain (Homo sapiens, UniProt O95819)           IC50        ≤ 100 nM
2  COc1ccc(-n2cc(-c3ccc(OCCC(C)(C)O)cc3)c3c(=O)[nH]cnc32)cn1 [Ex-86]  human MAP4K4 kinase domain (Homo sapiens, UniProt O95819)           IC50        ≤ 100 nM
3  O=c1[nH]cnc2c1c(-c1cnn(Cc3ccccc3)c1)cn2-c1ccccc1 [Ex-23]  human MAP4K4 kinase domain (Homo sapiens, UniProt O95819)           IC50        ≤ 100 nM
4  CC(=O)NC1CC(n2cc(-c3cn(-c4ccccc4)c4nc[nH]c(=O)c34)cn2)C1 (stereo not drawn) [Ex-16]  human MAP4K4 kinase domain (Homo sapiens, UniProt O95819)           IC50        ≤ 100 nM
5  O=c1[nH]cnc2c1c(-c1cnn(CCO)c1)cn2-c1ccccc1 [Ex-27]  human MAP4K4 kinase domain (Homo sapiens, UniProt O95819)           IC50        ≤ 100 nM

Q: Any idea what IC50 was measured for Cc1cc(-c2cn(-c3ccccc3)c3c(=O)[nH]cnc23)ccn1 [Ex-130] ?
Result: 100 to 1000 nM

Q: Lookup CC(=O)N1CC(n2cc(-c3cn(-c4ccncc4)c4nc[nH]c(=O)c34)cn2)C1 [Ex-12]
Result: 100 to 1000 nM

Q: Lookup CC(C)(N)CCOc1ccc(-c2cn(-c3cccnc3)c3nc[nH]c(=O)c23)cc1 [Ex-111]
Result: 100 to 1000 nM

====

# TEST TARGET: UniProt O60285
# Sequence (O60285 whole entry, species assumed): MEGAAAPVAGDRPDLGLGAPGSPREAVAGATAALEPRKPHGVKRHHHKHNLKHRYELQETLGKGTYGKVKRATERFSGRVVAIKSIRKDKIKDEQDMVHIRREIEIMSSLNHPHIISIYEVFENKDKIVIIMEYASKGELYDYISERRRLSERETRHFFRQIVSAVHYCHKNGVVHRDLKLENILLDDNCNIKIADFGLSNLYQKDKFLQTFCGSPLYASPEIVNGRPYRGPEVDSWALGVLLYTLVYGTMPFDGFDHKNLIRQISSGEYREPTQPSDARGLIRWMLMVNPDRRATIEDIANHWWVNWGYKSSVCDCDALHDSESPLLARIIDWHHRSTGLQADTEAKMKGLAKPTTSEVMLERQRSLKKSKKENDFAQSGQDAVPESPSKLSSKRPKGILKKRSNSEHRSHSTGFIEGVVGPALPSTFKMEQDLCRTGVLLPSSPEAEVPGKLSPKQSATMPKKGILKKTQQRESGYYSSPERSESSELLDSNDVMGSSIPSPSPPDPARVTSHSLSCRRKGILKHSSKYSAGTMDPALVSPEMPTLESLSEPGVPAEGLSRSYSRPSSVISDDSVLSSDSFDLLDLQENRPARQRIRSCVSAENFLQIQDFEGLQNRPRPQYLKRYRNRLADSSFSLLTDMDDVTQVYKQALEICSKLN
# TEST NAME: Kinase selectivity panel, NUAK1
# Assay type: biochemical
# COND: read-out: pIC50 NUAK1 (converted)
ENDPOINT NAME: IC50 (nM)

Examples from the recorded data:
In [3]: df
Out[3]:
                                   molecule     test_target  observed
0  CC(C)(O)CCOc1ccc(-c2cn(-c3cccnc3)c3nc[nH]c(=O)c23)cc1  UniProt O60285       501
1  COCCOc1ccc(-c2cn(-c3cccnc3)c3nc[nH]c(=O)c23)cc1  UniProt O60285      1260
2  O=c1[nH]cnc2c1c(-c1ccc(OCC(O)CN3CCOCC3)cc1)cn2-c1cccnc1 (stereo not shown)  UniProt O60285       126

A. O=c1[nH]cnc2c1c(-c1cnn(CCO)c1)cn2-c1ccccc1
B. O=c1[nH]cnc2c1c(-c1cnn(C3COC3)c1)cn2-c1ccccc1
C. COCCOc1ccc(-c2cn(-c3cccc(F)c3)c3nc[nH]c(=O)c23)cn1
D. COCCOc1ccc(-c2cn(-c3ccncc3)c3nc[nH]c(=O)c23)cc1
Q: Parameters: sort_field (IC50), sort_dir (desc). Return the labels ranked in the requested order, please.
Result: D, C, A, B

====

# TEST TARGET: GLK/MAP4K3 (Homo sapiens, UniProt Q8IVH8)
# Sequence (Q8IVH8 whole entry): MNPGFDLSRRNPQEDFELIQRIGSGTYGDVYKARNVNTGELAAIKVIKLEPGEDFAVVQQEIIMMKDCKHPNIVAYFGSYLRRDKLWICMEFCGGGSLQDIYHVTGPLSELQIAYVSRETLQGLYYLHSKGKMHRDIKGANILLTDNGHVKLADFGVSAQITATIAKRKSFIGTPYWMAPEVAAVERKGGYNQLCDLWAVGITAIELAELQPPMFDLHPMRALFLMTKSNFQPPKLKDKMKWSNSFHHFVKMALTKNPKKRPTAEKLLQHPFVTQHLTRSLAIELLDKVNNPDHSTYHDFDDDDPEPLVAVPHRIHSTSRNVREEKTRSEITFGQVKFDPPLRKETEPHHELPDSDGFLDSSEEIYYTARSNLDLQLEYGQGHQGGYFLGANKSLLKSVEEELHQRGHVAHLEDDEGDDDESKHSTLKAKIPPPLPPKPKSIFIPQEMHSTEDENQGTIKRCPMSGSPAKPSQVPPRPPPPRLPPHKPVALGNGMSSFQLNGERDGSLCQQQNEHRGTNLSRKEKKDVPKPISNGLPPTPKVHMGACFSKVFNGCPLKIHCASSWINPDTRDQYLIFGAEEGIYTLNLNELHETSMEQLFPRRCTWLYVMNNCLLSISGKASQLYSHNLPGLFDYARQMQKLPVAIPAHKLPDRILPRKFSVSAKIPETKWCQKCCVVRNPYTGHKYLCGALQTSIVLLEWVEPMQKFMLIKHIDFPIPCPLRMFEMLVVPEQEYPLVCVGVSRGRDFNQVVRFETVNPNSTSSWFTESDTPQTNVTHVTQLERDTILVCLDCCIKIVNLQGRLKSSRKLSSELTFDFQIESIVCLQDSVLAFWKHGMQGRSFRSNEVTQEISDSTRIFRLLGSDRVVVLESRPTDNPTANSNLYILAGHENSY
# TEST NAME: Kinase selectivity panel, GLK/MAP4K3
# Assay type: biochemical
# COND: in favour of MAP4K4
ENDPOINT NAME: fold selectivity MAP4K4 over GLK/MAP4K3

>>> print(df.to_string())
                                   molecule                            endpoint_name   observed
0  CC(C)(O)CCOc1ccc(-c2cn(-c3cccnc3)c3nc[nH]c(=O)c23)cc1  fold selectivity MAP4K4 over GLK/MAP4K3  (50) fold
1  O=c1[nH]cnc2c1c(-c1ccc(OCC(O)CN3CCOCC3)cc1)cn2-c1cccnc1 (stereo not shown)  fold selectivity MAP4K4 over GLK/MAP4K3  (50) fold

====

# TEST TARGET: human MAP4K4 kinase domain (Homo sapiens)
# Construct: 0.5 nM human MAP4K4 kinase domain (Invitrogen); purchased Invitrogen
# TEST NAME: MAP4K4 kinase activity, CisBio HTRF Transcreener ADP assay
# Assay type: biochemical
# COND: IC50 category; ATP at Km (10 μM), 0.5 nM kinase domain, 2 h; read-out: MAP4K4
ENDPOINT NAME: IC50

Q: Recorded IC50 for `Nc1ncccc1-c1cn(-c2ccccc2)c2c(=O)[nH]cnc12` with human MAP4K4 kinase domain (Homo sapiens), please?
Result: > 1000 nM

Q: Lookup `COCCNc1ncc(-c2cn(-c3ccncc3)c3nc[nH]c(=O)c23)cn1`
Result: 100 to 1000 nM

Q: Lookup `CNc1ccc(-c2cn(-c3ccccc3)c3c(=O)[nH]cnc23)cn1`
Result: > 1000 nM

Q: Lookup `COCCOc1ccc(-c2cn(-c3cccc(F)c3)c3nc[nH]c(=O)c23)cn1`
Result: ≤ 100 nM

Q: Lookup `O=C(C1CC1)N1CC(n2cc(-c3cn(-c4cccc(F)c4)c4nc[nH]c(=O)c34)cn2)C1`
Result: ≤ 100 nM

====

# TEST TARGET: human MAP4K4 kinase domain (Homo sapiens)
# Construct: 0.5 nM human MAP4K4 kinase domain (Invitrogen); purchased Invitrogen
# TEST NAME: MAP4K4 kinase activity, CisBio HTRF Transcreener ADP assay
# Type: biochemical
# COND: IC50 category; ATP at Km (10 μM), 0.5 nM kinase domain, 2 h; read-out: MAP4K4
pIC50: −log10 of the molar value.
ENDPOINT NAME: pIC50

Q: Any idea what pIC50 was measured for `CC(=O)N1CC(n2cc(-c3cn(-c4cccnc4)c4nc[nH]c(=O)c34)cn2)C1` ?
Result: 6.00 to 7.00

Q: Lookup `CNCCn1cc(-c2cn(-c3ccccc3)c3nc[nH]c(=O)c23)cn1`
Result: 6.00 to 7.00

Q: Lookup `O=c1[nH]cnc2c(-c3cnn(CCO)c3)cn(-c3ccccc3)c12`
Result: 6.00 to 7.00

Q: Lookup `O=c1[nH]cnc2c1c(-c1cn[nH]c1)cn2-c1ccccc1`
Result: ≥ 7.00

Q: Lookup `CC(C)(O)CCOc1ccc(-c2cn(-c3cccnc3)c3nc[nH]c(=O)c23)c(F)c1`
Result: ≥ 7.00

Q: Lookup `CN(CCO)c1ncc(-c2cn(-c3ccccc3)c3nc[nH]c(=O)c23)cc1C#N`
Result: ≥ 7.00

Q: Lookup `O=C(C1CC1)N1CC(n2cc(-c3cn(-c4cccnc4)c4nc[nH]c(=O)c34)cn2)C1`
Result: 6.00 to 7.00

Q: Lookup `Cn1cc(-c2cn(-c3ccccc3)c3nc[nH]c(=O)c23)cn1`
Result: ≥ 7.00

Q: Lookup `Nc1ccc(-c2cn(-c3ccccc3)c3nc[nH]c(=O)c23)cn1`
Result: ≥ 7.00

Q: Lookup `CC(C)(O)CCNc1ccc(-c2cn(-c3ccccc3)c3nc[nH]c(=O)c23)cn1`
Result: ≥ 7.00

Q: Lookup `CC(C)(O)COc1ccc(-c2cn(-c3cc[n+]([O-])cc3)c3nc[nH]c(=O)c23)cc1`
Result: 6.00 to 7.00

Q: Lookup `CC(C)(O)CCOc1ccc(-n2cc(-c3cccnc3)c3nc[nH]c(=O)c32)cc1`
Result: ≥ 7.00
